Test: Chromogenic reaction of degrading herbicides in bacteria: triclopyr
Format: cell-based, Escherichia coli
Details: recombinant E. coli expressing the gene
observation type: Chromogenic reaction of degrading herbicides in bacteria: Triclopyr

# molecule, reported
rows = [
    ("QYD58: AAD-like enzyme, SEQ ID NO. 115 (protein, Synthetic polypeptide, QYD58, D58) MARTFDIEPLAGTTFGAVVRGMKVAILDDAGWRDLYAAWLKYALLVFPGQHLKRDEQIAFAKRFGALEFEMAALSNVKSDGTLRQEKDNDDMMKILKGNMGWHADSTYMPVQAKGAVFSAEIVPGAGGQTGFADMRAAYDALDAGRKAKVERLAAHHSLHYSQSKLGHQTKKQDGEYSGYGLHDGPVPLRPLVKTHPETGRKSLLIGRHAHNIPGMDKAESERLLQELVDFACQPPRVYHHDWTAGDAVVWDNRCLLHQATPWDMTQPRVMWHSRIAGDPRSEAALGVTAVSAAASG", "Yes"),
    ("QYD30: AAD-like enzyme, SEQ ID NO. 59 (protein, Synthetic polypeptide, QYD30, D30) MALSLTPLTPGFVAEASGLDLTRPLDAAAVRTIEQAMDDYAVLVFRNQPLDQDQQIRFAQGFGPLDLGLRKVKGGAHRFDHAELADISNVTVDGSVAGRDHAKIVGNIANQLWHSDSSFQRPRAKYSMLSAVVVPQDGGQTEFADLRAAYDHLPDGMKAAIGDLQAVHYALHSRFLLGDTEYTQAQRDALPAVRWPLVQTDPRSGRKILFVGIHACEVVGMTVAEGRMLLLDLLEHATQREFVYRHHWRVGDLVMWDNTATLHRGRRFDLAQRRELRRATTEEVRLSAEARAAA", "Yes"),
]
